Below, each of the molecules is paired with its reported inhibition value.
- Target Entity: Protein phosphatase methylesterase 1 (Homo sapiens) (UniProt Q9Y570)
- Sequence (Q9Y570 whole entry, looked up): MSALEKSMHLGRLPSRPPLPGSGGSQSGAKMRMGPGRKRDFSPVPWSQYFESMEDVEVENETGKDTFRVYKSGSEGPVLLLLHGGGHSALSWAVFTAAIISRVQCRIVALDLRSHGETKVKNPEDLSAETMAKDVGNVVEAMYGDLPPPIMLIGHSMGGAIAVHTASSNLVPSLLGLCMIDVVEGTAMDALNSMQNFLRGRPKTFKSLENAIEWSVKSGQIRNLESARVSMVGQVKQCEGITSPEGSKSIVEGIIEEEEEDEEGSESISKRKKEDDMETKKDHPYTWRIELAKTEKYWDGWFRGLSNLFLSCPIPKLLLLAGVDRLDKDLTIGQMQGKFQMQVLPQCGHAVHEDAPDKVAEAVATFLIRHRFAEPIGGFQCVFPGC
- Method Summary: PME-1 inhibitor activity retest, confirmation, biochemical, fluorescence polarization, FP-Rh probe, triplicate (AID 2171);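 also: 0% = enzyme with DMSO and 100% = wells lacking PME-1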
- Experimental Setup: recombinant PME-1, FP-Rh probe fluorescence polarization; at 5.9 µM; hits give high values
Write the number in % without appending the unit.

Sample records with inhibition:
CCc1ccc2nc(SCC(=O)N3CC(=O)Nc4ccccc43)c(C#N)cc2c1
15.3
CC1(OC(=O)c2cnc3ccccc3n2)C(=O)C=C2C=C(C3CC3)OC=C2C1=O (configuration not stated)
23.9
COc1ccccc1NC(=O)CCC(=O)Nc1nnc(C(F)(F)F)s1
4.64
Cc1ccc(NS(=O)(=O)c2ccc3c(c2)C(=O)c2ccccc2C3=O)c(C)c1
24.5
O=C(CNc1cccc2ccccc12)N/N=C/C(Br)=C/c1ccccc1
-1.47
O=C(NC(C(=O)N/N=C/c1cc([N+](=O)[O-])ccc1O)c1n[nH]c(=O)c2ccccc12)c1ccccc1 (configuration not stated)
58.3
C=CCn1c(O)c(N=Nc2ccccc2O)c2ccccc21
29.2
COC(=O)c1cccc(C#CC(NP(=O)(c2ccccc2)c2ccccc2)c2ccccc2)c1 (configuration not stated)
35.1
O=C(O)c1ccc(-c2ccc(/C=N/Nc3ccc([N+](=O)[O-])cc3)o2)cc1
33.5
N#C/C(=C\c1ccc(O)c(O)c1)C(=O)Nc1cccc2ncccc12
-29.9

### Prompt Look up inhibition for this molecule: Nc1ccc2nc3c(=O)n(CCc4ccccc4)c(=O)[nH]c3nc2c1
### Response 51.2

### Prompt Similarly, Nc1cc2nsnc2cc1Br ?
### Response 34.7

* * *

- Method Summary: StAR promoter reporter inhibitors, counter-screen for LRH-1 inverse agonist project, cell-based, luminescence, high throughput (AID 651611)
- Experimental Setup: StAR promoter luciferase reporter counterscreen, at 3.6 µM, hits give high values
inhibition of 20% or higher: true. Under 20%: false.

Below, 6 compounds whose answers are already recorded.
Nc1ccc2c(c1)C(=O)C(=O)c1ccccc1-2
true
CC(=O)N(/N=C1\Sc2ccccc2C1=O)c1ccc(C)cc1C
false
Cc1ccnc2nc(C(=O)OCC(=O)Nc3ccc([N+](=O)[O-])cc3Br)nn12
false
CCN(CC)C1=CC(=O)OC12CCCCC2
false
CCCc1cc(=O)oc2cc(C)cc(OCC(=O)Nc3ccccn3)c12
false
CCCC(=O)NC(c1ccc(Cl)cc1)c1ccc2cccnc2c1O (stereo not drawn)
true

### Prompt Evaluate CCCCCCCCCCn1ccc(=N)cc1 : inhibition at minimum 20%?
### Response true

### Prompt Similarly, CCN(CC)CC(=O)Nc1ccc(-c2nc3cc(NC(=O)CN(CC)CC)ccc3o2)cc1 ?
### Response false

### Prompt Similarly, COc1ccc(Oc2ccc(NC(=O)c3ccccc3C)cc2)cc1 ?
### Response false

### Prompt Similarly, O=[N+]([O-])c1cnccc1Nc1ccccc1 ?
### Response false

### Prompt Similarly, O=C(Nc1cc(C(F)(F)F)cc(C(F)(F)F)c1)O[C@@H]1c2ccccc2[C@@H]2Cc3csc[n+]3[C@H]12 ?
### Response false

* * *

- Method Summary: VP16 transactivation inhibitors, counter-screen for SRC1 inhibitor project, cell-based, luminescence, high throughput (AID 588824)
- Experimental Setup: cell-based VP16 transactivation luciferase luminescence; at 3.6 µM; hits give high values
Metric: inhibition (%)
Write the number in % without appending the unit.

Sample records with inhibition:
Clc1ccc(C2NCCc3sccc32)cc1 (stereo unspecified)
8.67
O=C1CSc2ccc(S(=O)(=O)NCc3ccccc3)cc2N1
-9.61
COc1ccc(-c2noc(CCCC(=O)O)n2)cc1
26
Cn1nnnc1Sc1ncnc2scc(-c3cccc(Br)c3)c12
47.5
CCn1cc(/C=C/c2cc[n+](C)cc2)c2ccccc21
47.3

### Prompt Look up inhibition for this compound: CC(C)n1c(SCC(=O)Nc2nc3c(s2)CCCC3)nc2c1c(=O)n(C)c(=O)n2C
### Response 23.6

### Prompt Similarly, O[C@@H]1[C@@H](O)C=C2CCN3Cc4cc5c(cc4[C@H]1C23)OCO5 (stereo partly specified) ?
### Response 76.7

### Prompt Similarly, COc1ccc(-c2n[nH]c(=S)n2-c2ccc(C)cc2)cc1 ?
### Response -40

### Prompt Similarly, C=C1CCC[C@]2(C)C[C@H]3OC(=O)C(CN4CC(C)OC(C)C4)[C@H]3C[C@@H]12 (stereo partly specified) ?
### Response 2.96

### Prompt Similarly, COc1ccc(CNC(=O)c2cc3c(C)nc4ccccc4c3o2)c(OC)c1 ?
### Response 22.3

### Prompt Similarly, CCCCCCCC/C=C\CCCCCCCC(=O)NCCc1ccc(O)c(O)c1 ?
### Response -11.4

Reference source for all entries: PubChem BioAssay
